Values were extracted from PubChem BioAssay (NCI).

Entries and their TGI values follow.
Tested on: SR leukemia
experiment-description: NCI tumour cell line growth inhibition, 48 h

compound | parameter-measured | measured-value
COC1(OC)c2occc2C(=N)c2ccc(=O)oc21 | TGI | > 100 µM

stdin: Please give the documented TGI of c1ccc(COC[C@H]2O[C@@H](c3ccccc3)C[C@@H](OCc3ccccc3)C2OCc2ccccc2)cc1 (stereo not given in full)
stdout: > 10 µM

stdin: Please give the documented TGI of "C=CCN(CC=C)C(=O)c1cc(C)nc2c1c(=O)n(-c1ccccc1)c(=O)n2CCCN1CCN(c2ccccc2OC)CC1"
stdout: > 50 µM

stdin: Please give the documented TGI of "COC(=O)/C=C/c1ccc(OP(=O)(O)O)c(OC)c1"
stdout: > 100 µM

stdin: Please give the documented TGI of CCN(/C=C1/C(=O)C(c2ccccc2)N(c2ccccc2)C1=O)CC (stereo not given)
stdout: > 10 µM
